- ASSAY PROCEDURE: Hepatome AH 130 tumour growth inhibition in rats
- Assay type: in vivo, Sprague-Dawley rats
- STATED CONDITIONS: rat, in vivo, ip, one i.p. injection, dose causing 50 percent lethality, column head not given
Overview of reported LD50 across a group of compounds:

- CHEMICAL SMILES: "CC(=O)[C@@]1(OC(=O)COC(=O)c2ccc(C)c(N(CCCl)CCCl)c2)CC[C@H]2[C@@H]3CCC4=CC(=O)CC[C@]4(C)[C@H]3CC[C@@]21C"
  LD50: "> 250 mg/kg"
- CHEMICAL SMILES: "CC(=O)[C@@]1(OC(=O)CNC(=O)CCCc2ccc(N(CCCl)CCCl)cc2)CC[C@H]2[C@@H]3CCC4=CC(=O)CC[C@]4(C)[C@H]3CC[C@@]21C"
  LD50: "> 250 mg/kg"
- CHEMICAL SMILES: "CC(=O)[C@@]1(OC(=O)COC(=O)CCCc2ccc(N(CCCl)CCCl)cc2)CC[C@H]2[C@@H]3CCC4=CC(=O)CC[C@]4(C)[C@H]3CC[C@@]21C"
  LD50: "> 1000 mg/kg"
- CHEMICAL SMILES: "CC(=O)[C@@]1(OC(=O)COC(=O)Cc2ccc(N(CCCl)CCCl)cc2)CC[C@H]2[C@@H]3CCC4=CC(=O)CC[C@]4(C)[C@H]3CC[C@@]21C"
  LD50: "> 250 mg/kg"
- CHEMICAL SMILES: "CC(=O)[C@@]1(OC(=O)CCCOC(=O)CCCc2ccc(N(CCCl)CCCl)cc2)CC[C@H]2[C@@H]3CCC4=CC(=O)CC[C@]4(C)[C@H]3CC[C@@]21C"
  LD50: "180 mg/kg"
